Tested on: 596521-263-R-J1-PDC complex spheroids, viability % of control
Measurement description: Anticancer human tumor 596521-263-R-J1-PDC patient-derived soft tissue sarcoma cell line growth inhibition [GQUAD]
Experimental parameters: curve of first compound; second compound 0.316 µM
Endpoint label: IC50

What value of IC50 has been recorded for this entry: CCCS(=O)(=O)Nc1ccc(F)c(C(=O)c2c[nH]c3ncc(-c4ccc(Cl)cc4)cc23)c1F + Cc1cnc(CNC(=O)c2c(=O)c3ccc(N4CCCN(C)CC4)nc3n3c2sc2ccccc23)cn1
6680 nM

What value of IC50 has been recorded for this entry: COc1cccc2c1C(=O)c1c(O)c3c(c(O)c1C2=O)CC(O)(C(=O)CO)CC3OC1CC(N)C(O)C(C)O1 (stereo not given) + Cc1cnc(CNC(=O)c2c(=O)c3ccc(N4CCCN(C)CC4)nc3n3c2sc2ccccc23)cn1
795 nM

What value of IC50 has been recorded for this entry: COc1ccc([C@@H](O)c2cc(-c3ncnc4cc(N5CCOCC5)ccc34)c(F)cc2Cl)nn1 + Cc1[nH]c2ccc(F)cc2c1-c1nc2c3cccnc3c3ncccc3c2[nH]1
> 10000 nM

What value of IC50 has been recorded for this entry: O=C(NO)c1cnc(N2CCN(S(=O)(=O)c3ccc4ccccc4c3)CC2)nc1 + Cc1[nH]c2ccc(F)cc2c1-c1nc2c3cccnc3c3ncccc3c2[nH]1
< 31.6 nM

What value of IC50 has been recorded for this entry: COc1cccc2c1C(=O)c1c(O)c3c(c(O)c1C2=O)CC(O)(C(=O)CO)CC3OC1CC(N)C(O)C(C)O1 (stereo not given) + CN(C)c1ccc(Nc2c3ccc(NC(=O)CCN4CCCC4)cc3nc3cc(NC(=O)CCN4CCCC4)ccc23)cc1
722 nM

---

Tested on: 596521-263-R-J1-PDC complex spheroids, viability % of control
Measurement description: Anticancer human tumor 596521-263-R-J1-PDC cell line growth inhibition [GQUAD];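 further: spheroids exposed to drugs for 7 days before viability reading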;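 on viability, T/C: 100% = DMSO vehicle control viability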
Experimental parameters: second compound 10 µM; first compound 10 µM; stronger effect = lower value
Measured viability, T/C accompanies every entry in the list below.
// return numeric value only (unit: %, not printed)

What value of viability, T/C has been recorded for this entry: CC1COCCN1c1cc(-c2ccnn2C)c2ccnc(-c3ccn[nH]3)c2n1 (stereo not drawn) + CN(C)c1ccc(Nc2c3ccc(NC(=O)CCN4CCCC4)cc3nc3cc(NC(=O)CCN4CCCC4)ccc23)cc1
21.9

What value of viability, T/C has been recorded for this entry: Cc1cccc(N(C)C(=O)C2C(O)CCN2c2nc(C)cc(C(F)(F)F)c2C#N)c1 (stereo not drawn) + Cc1cnc(CNC(=O)c2c(=O)c3ccc(N4CCCN(C)CC4)nc3n3c2sc2ccccc23)cn1
41.8

What value of viability, T/C has been recorded for this entry: C#Cc1c(F)ccc2cc(O)cc(-c3ncc4c(N5CC6CCC(C5)N6)nc(OCC56CCCN5CC(F)C6)nc4c3F)c12 (stereo not drawn) + Cc1[nH]c2ccc(F)cc2c1-c1nc2c3cccnc3c3ncccc3c2[nH]1
30

---

Measured viability, T/C accompanies every entry in the list below.
System: 596521-263-R-J1-PDC complex spheroids, viability % of control
Measurement description: Anticancer human tumor 596521-263-R-J1-PDC cell line growth inhibition [GQUAD];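 further: spheroids exposed to drugs for 7 days before viability reading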;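 on viability, T/C: 100% = DMSO vehicle control viability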
Experimental parameters: second compound 0.316 µM; first compound 3.16 µM; stronger effect = lower value
// return numeric value only (unit: %, not printed)

Field: example entries. Status: answers known.
[
  {
    "Compound": "Nc1ccn(C2OC(CO)C(O)C2(F)F)c(=O)n1 (stereo not given) + Cc1[nH]c2ccc(F)cc2c1-c1nc2c3cccnc3c3ncccc3c2[nH]1",
    "viability, T/C, %": 45.4
  },
  {
    "Compound": "O=C(c1cc(Cc2n[nH]c(=O)c3ccccc23)ccc1F)N1CCN(C(=O)C2CC2)CC1 + CN(C)c1ccc(Nc2c3ccc(NC(=O)CCN4CCCC4)cc3nc3cc(NC(=O)CCN4CCCC4)ccc23)cc1",
    "viability, T/C, %": 88.5
  },
  {
    "Compound": "CC(C)(O)C1CCC(Nc2ccc3ncc(-c4cccc(C(F)(F)F)c4)n3n2)CC1 (stereo not given) + Cc1[nH]c2ccc(F)cc2c1-c1nc2c3cccnc3c3ncccc3c2[nH]1",
    "viability, T/C, %": 103
  },
  {
    "Compound": "CCCS(=O)(=O)Nc1ccc(F)c(C(=O)c2c[nH]c3ncc(-c4ccc(Cl)cc4)cc23)c1F + Cc1cnc(CNC(=O)c2c(=O)c3ccc(N4CCCN(C)CC4)nc3n3c2sc2ccccc23)cn1",
    "viability, T/C, %": 71.3
  }
]

API: the following record is the query input.
What value of viability, T/C has been recorded for this entry: COc1cc(C2c3cc4c(cc3C(OC3OC5COC(C)OC5C(O)C3O)C3COC(=O)C23)OCO4)cc(OC)c1O (stereo not given) + Cc1cnc(CNC(=O)c2c(=O)c3ccc(N4CCCN(C)CC4)nc3n3c2sc2ccccc23)cn1
50.3
